Hello, the source for this data is PubChem BioAssay (NCI), in case you need it.

# Tested on: UACC-257 melanoma
# measurement.protocol: NCI-60 one-dose screen, 48 h (100 = growth as untreated, 0 = no growth, -100 = all killed)
# condition.set: 10 µM unless noted
Compounds without any hit were thinned out: in the full panel of roughly 83,000, 20% have a hit. The source made the active and inactive calls. How the source made its calls: active means growth percent below 10; inactive means the rest.
recorded.metric: growth

{"columns": ["compound", "target.system", "growth"],
 "data": [
  ["CCOC(=O)c1ccc(N2C(=O)C(Cl)(c3ccccc3)C2c2ccco2)cc1 (centres undefined)", "UACC-257 melanoma", "89.7% (inactive)"],
  ["O=c1ccn2c(n1)OC1CC2OC1COC(c1ccccc1)(c1ccccc1)c1ccccc1 (centres undefined)", "UACC-257 melanoma", "93.8% [100 µM] (inactive)"],
  ["COc1ccc(CCl)c(C)c1OC", "UACC-257 melanoma", "96% (inactive)"]
]}

What measured growth goes with `O=[N+]([O-])c1cccc(N=Cc2ccccc2)c1` ?
102% (inactive)

* * *

# System: SK-OV-3 ovarian
# measurement.protocol: NCI-60 one-dose screen, 48 h (100 = growth as untreated, 0 = no growth, -100 = all killed)
# condition.set: 10 µM unless noted
About 83,000 compounds went through this panel and 20% of them were active in at least one assay; those are over-represented in the sample as a whole. Active and inactive are the calls of the source. The calls were made as follows: active = growth percent below 10; inactive = the rest.
Recorded growth, one value per entry.

Recorded results for 2 compounds are shown here.
{"columns": ["compound", "target.system", "growth"],
 "data": [
  ["COc1ccc(CCN=Cc2ccc(Cl)cc2)cc1OC", "SK-OV-3 ovarian", "112% (inactive)"],
  ["COCCNC(C)=O", "SK-OV-3 ovarian", "102% (inactive)"]
]}

What measured growth goes with CCN(CC)CCO/N=C1\CC(c2ccc(OC)c(OC)c2)Oc2ccccc21 (stereo unspecified) ?
96.5% (inactive)

What measured growth goes with `CCCCNC(=O)c1ccccc1C` ?
97.3% (inactive)

What measured growth goes with O=C(c1ccc(Cl)cc1)C1C(c2ccccc2)C1[N+](=O)[O-] (stereo unspecified) ?
105% (inactive)

What measured growth goes with `CC(=O)Oc1ccc(C(c2ccc(OC(C)=O)cc2)c2ccccn2)cc1` ?
119% (inactive)

What measured growth goes with Cc1ccc(NC(=S)N/C=C(\c2ccccc2)S(=O)Cc2ccccc2)c(C)c1 (stereo unspecified) ?
100% (inactive)

What measured growth goes with `CCOC(C)=N` ?
97% (inactive)

What measured growth goes with COC(=O)C(Cc1cn(C(C)=O)c2ccccc12)P(=O)(OC)OC (stereo unspecified) ?
113% (inactive)

What measured growth goes with `O=C(c1ccncc1)c1c(Cc2ccccc2)ccc2ccccc12` ?
120% (inactive)

What measured growth goes with `CCC/C(=N/NC(N)=O)c1ccco1` ?
91.6% (inactive)

What measured growth goes with `Cc1ccc(S(=O)(=O)n2ccnc2)cc1` ?
123% (inactive)

What measured growth goes with `COc1ccc(/C=N/Nc2nc3ccccc3s2)cc1` ?
90% (inactive)

What measured growth goes with `COc1cc(NCCCCCNC(C)C)c2ncccc2c1` ?
84.3% (inactive)

What measured growth goes with COCCCNC1=C(C#N)C(=O)NC(c2cccs2)S1 (stereo unspecified) ?
101% (inactive)

What measured growth goes with `CCCC(=O)Oc1ccc2ccccc2c1` ?
91.8% (inactive)

What measured growth goes with `N#Cc1c(N)nc2c(c(-c3ccc(Cl)cc3)nn2-c2ccccc2)c1C#N` ?
94.8% [100 µM] (inactive)

What measured growth goes with O=C1c2ccccc2C(c2ccccc2)C1c1ccccc1 (stereo unspecified) ?
93.5% (inactive)

What measured growth goes with `CCCC(=O)OCC(COC(=O)CCC)OC(=O)CCC` ?
103% (inactive)

What measured growth goes with `N#CC(=S)Nc1ccc(Cl)c(Cl)c1` ?
7.19% (active)

What measured growth goes with `ON=C(C1CCCCC1)C1CCCCC1` ?
106% (inactive)
